Experiment: inhibitors of TNFa-induced NFkB p65 translocation, primary screen, imaging, HUVEC, MLSMR starter and 10KST1 sets (AID 438);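 note: compound added about 3h40 before a 20 min TNFalpha stimulation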
Conditions: HUVEC TNFa-induced p65 nuclear translocation; measured here: nuclei count (cytotoxicity indicator), at 2.08 µM
Label rule, in plain words: cell count of 500 and up is 1, under 500 is -1.

Consider the worked cases shown below.
FC(F)(F)c1cccc(N2CCN(c3nnnn3-c3ccccc3)CC2)c1    -1
CC1(c2ccc(Cl)cc2)NC(=O)N(CC(=O)NC(=O)NCc2ccco2)C1=O (configuration not stated)    -1
CC(C)(O)C#Cc1ccc(C(=O)N2CCN(C(=O)c3ccco3)CC2)cc1    1
O=C(Cn1c(=O)n(CC2CCCO2)c(=O)c2ccccc21)c1ccccc1 (configuration not stated)    -1
Cc1ccc(-c2nnc(SCC(=O)N3c4ccccc4NC(=O)C3(C)C)n2N)cc1    1
Cc1nc(CCNS(=O)(=O)c2cccs2)cs1    -1

Moving on to another compound below.
Prompt: Is reported cell count greater than or equal to 500 here: CCOC(=O)CSC1=C(C#N)C(c2ccc(C)o2)CC(=O)N1 (configuration not stated)
Response: 1

Data credit: PubChem BioAssay
